The reported measurements were obtained from PubChem BioAssay (NCATS).

# TARGET_SYSTEM: Cytochrome P450 2C19 (Homo sapiens) (UniProt P33261)
# Sequence (P33261 whole entry, looked up): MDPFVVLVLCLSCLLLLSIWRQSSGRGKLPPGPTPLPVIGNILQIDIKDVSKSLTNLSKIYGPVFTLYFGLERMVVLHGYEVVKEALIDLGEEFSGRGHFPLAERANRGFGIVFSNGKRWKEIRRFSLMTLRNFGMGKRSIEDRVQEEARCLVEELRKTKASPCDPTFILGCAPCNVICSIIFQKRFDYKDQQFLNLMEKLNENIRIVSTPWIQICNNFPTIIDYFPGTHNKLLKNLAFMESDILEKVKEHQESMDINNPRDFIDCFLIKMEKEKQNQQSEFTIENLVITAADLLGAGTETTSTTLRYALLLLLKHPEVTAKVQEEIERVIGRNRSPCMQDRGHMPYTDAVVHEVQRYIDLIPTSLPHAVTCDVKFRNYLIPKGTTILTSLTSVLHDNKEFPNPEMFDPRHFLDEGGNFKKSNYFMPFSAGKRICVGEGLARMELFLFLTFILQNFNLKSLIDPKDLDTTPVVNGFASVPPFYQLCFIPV
# TEST_DESCRIPTION: qHTS Assay for Inhibitors and Substrates of Cytochrome P450 2C19 (AID 899); note: nearly all actives have a fitted effect of over 60% in size
# RECORDED_CONDITIONS: recombinant CYP2C19, luciferin-H EGE luminescence; series mostly up to 57.1 µM
Records with an inconclusive call do not appear. The source made the active and inactive calls. Calls come from the whole dose curve; as a rule, active = well fitted inhibition curve with a large enough effect; inconclusive = small, poorly fitted or top-dose-only effect; inactive = no such curve, though single readings can be large or run the other way.
Labels: 1 (yes) for active, 0 (no) for inactive

| COMPOUND_STRUCTURE | GROUP_LABEL |
| --- | --- |
| O=C(CCCN1CCC2(CC1)C(=O)N(CCc1ccc(N=C=S)cc1)CN2c1ccccc1)c1ccc(F)cc1 | 1 (yes) |
| COc1c(-c2ccccc2)oc2c(ccc3occc32)c1=O | 1 (yes) |
| C[C@H]1C(=O)O[C@H]2CCN3CC=C(COC(=O)[C@](C)(O)[C@@]1(C)O)[C@H]23 | 0 (no) |
| CN[C@H]1[C@H]2[C@H]3CCN2C[C@@H]1O3 | 0 (no) |
| C[C@@H]1CCC/C=C\[C@H]2C[C@H](O)C[C@@H]2[C@H](O)/C=C\C(=O)O1 | 0 (no) |
| CC[C@@H]1CN2CC[C@@H]1C[C@H]2[C@@H](O)c1ccnc2ccc(OC)cc12 | 0 (no) |
| O=C1C=CC(=O)c2c1ccc1c2ccc2ccccc21 | 1 (yes) |
| C=C1C/C(=C\C)C(=O)O[C@@H]2CCN3CC=C(COC(=O)[C@]1(C)O)[C@H]23 | 0 (no) |
| OC[C@H]1CCCN2CCCC[C@@H]12 | 0 (no) |
| C=C(CO)[C@H]1Cc2c(ccc3c2O[C@H]2COc4cc(OC)c(OC)cc4[C@@H]2C3=O)O1 | 1 (yes) |

---

# Tested on: PC26
# TEST_DESCRIPTION: qHTS profiling for inhibitors of Plasmodium falciparum proliferation (AID 504749); note: nearly all actives have a fitted effect of over 60% in size
# RECORDED_CONDITIONS: P. falciparum in erythrocytes, SYBR Green DNA, 72 h; series mostly up to 28.7 µM
Records with an inconclusive call do not appear. Active and inactive are the calls of the source. The call rests on the fitted dose curve; in most records, active means well fitted inhibition curve with a large enough effect; inconclusive means small, poorly fitted or top-dose-only effect; inactive means flat fitted curve, though single readings scatter.
Labels: yes (1) = active, no (0) = inactive

| COMPOUND | TARGET_SYSTEM | GROUP_LABEL |
| --- | --- | --- |
| C=CC[C@]1(O)CCC2C3CCC4=CCCCC4C3CCC21C (stereo partly specified) | PC26 | no (0) |
| Nc1nc(O)c(-c2ccccc2)o1 | PC26 | no (0) |
| CCCCCC(O)C1C(=O)OC(C)C(O)\C=C/C=C\C=C/C=C\C=C(\C)C(O)C(O)C(O)CC(O)CC(O)CC(O)CC(O)CC1O (stereo unspecified) | PC26 | no (0) |
| CN(C)[C@@H](Cc1ccccc1)c1ccccc1 | PC26 | no (0) |
| CN1C2CCC1C(C(=O)O)C(OC(=O)c1ccccc1)C2 (stereo unspecified) | PC26 | no (0) |
| C[C@]12CC[C@H]3[C@@H](CC[C@@]45O[C@@H]4C(=O)C(C#N)C[C@]35C)[C@@H]1CC[C@@H]2O (stereo partly specified) | PC26 | no (0) |
| CCOC(=O)c1cncn1[C@@H](C)c1ccccc1 | PC26 | no (0) |
| COc1ccc2c3c1O[C@H]1[C@@H](O)C=C[C@H]4C(C2)NCCC341 (stereo partly specified) | PC26 | no (0) |
| O=C1CC2OCC=C3CN4CC[C@]56c7ccccc7N1C5C2[C@H]3C[C@H]46 (stereo partly specified) | PC26 | no (0) |
| C[C@@H]1CC[C@H]2[C@@H](C)C(=O)O[C@@H]3OC4(C)CC[C@@H]1C32OO4 (stereo partly specified) | PC26 | yes (1) |
| CN(C)C1C(=O)C(C(N)=O)C(=O)C2(O)C(=O)C3C(=O)c4c(O)cccc4C(C)(O)C3C(O)C12 (stereo unspecified) | PC26 | no (0) |
| CCC/C=C/C=C/C(=O)OC1/C(=C/C(=O)OC)CC2CC(C(C)O)OC(=O)CC(O)CC3CC(OC(C)=O)C(C)(C)C(O)(CC4C/C(=C/C(=O)OC)CC(/C=C\C(C)(C)C1(O)O2)O4)O3 (stereo unspecified) | PC26 | yes (1) |
| C#C[C@]1(O)CC[C@H]2[C@@H]3CCC4=CC(=O)CCC4(C)[C@H]3CCC21C (stereo partly specified) | PC26 | no (0) |
| OC[C@@H](O)[C@H]1O[C@@H]2OC(C(Cl)(Cl)Cl)O[C@H]2[C@H]1O (stereo partly specified) | PC26 | no (0) |
| CC(=O)Oc1ccc2c3c1OC1[C@@H](OC(C)=O)C=C[C@H]4[C@H](C2)N(C)CC[C@]314 (stereo partly specified) | PC26 | no (0) |
| CC1(C)[C@@H](C=C(Cl)Cl)[C@@H]1C(=O)OCc1c(F)c(F)cc(F)c1F | PC26 | no (0) |
| Cc1ccc2c(c1)[C@@H]1CN(C)CC[C@H]1N2 | PC26 | no (0) |
| C[C@H](N)Cc1ccccc1 | PC26 | no (0) |
| C#CC1(O)C=CC2C3CCC4=CC(=O)CCC4C3CCC21CC (stereo unspecified) | PC26 | yes (1) |
| CC(Cc1ccccc1)N(C)C (stereo unspecified) | PC26 | no (0) |
| CN(C)[C@H]1C(=O)C(C(N)=O)=C(O)[C@]2(O)C(=O)C3=C(O)c4c(O)cccc4[C@@](C)(O)[C@H]3C[C@@H]12 | PC26 | no (0) |

---

# TARGET_SYSTEM: Cytochrome P450 1A2 (Homo sapiens)
# TEST_DESCRIPTION: p450-cyp1a2 (AID 410)
# RECORDED_CONDITIONS: recombinant CYP1A2, luciferin-ME demethylation, luminescence; series mostly up to 57 µM
Inconclusive results are not listed. Calls of active or inactive are those of the source. The call rests on the fitted dose curve.
Labels: active, inactive

| MOLECULE | GROUP_LABEL |
| --- | --- |
| C[C@H](N)c1cccc(Cl)c1Cl | active |
| COc1cc2c(cc1OC)[C@]13CCN4CC5=CCO[C@@H]6CC(=O)N2[C@@H]1[C@H]6[C@@H]5C[C@H]43 | inactive |
| CCCC[C@@H]1C[C@H]1C(NP(=O)(c1ccccc1)c1ccccc1)c1ccc(Cl)cc1 (stereo partly specified) | inactive |
| C[C@H]1CCCC=CC2C[C@H](O)C[C@@H]2[C@H](O)/C=C\C(=O)O1 (stereo partly specified) | active |
| CC[C@@H]1CN2CC[C@@H]1C[C@H]2[C@@H](O)c1ccnc2ccc(OC)cc12 | inactive |
| CCN1C[C@@]2(COC(=O)c3ccccc3N3C(=O)C[C@H](C)C3=O)CC[C@H](OC)[C@@]34[C@@H]5CC6[C@@H](OC)C[C@@](O)([C@H]5[C@H]6OC)C(O)([C@@H]13)[C@@H](OC)[C@H]24 | inactive |
| c1cc2cc(c1)C[n+]1ccc(c3ccccc31)NCc1ccc(cc1)CNc1cc[n+](c3ccccc13)C2 | inactive |
| CC(C)(C)NC[C@H](O)c1ccccc1Cl | inactive |
| CC(C)[C@]1(NC(=O)[C@H]2C=C3c4cccc5[nH]cc(c45)C[C@H]3N(C)C2)O[C@@]2(O)[C@H]3CCCN3C(=O)[C@H](Cc3ccccc3)N2C1=O | active |
| CC(C)[C@@]1(NC(=O)[C@@H]2C[C@H]3c4cccc5[nH]cc(c45)C[C@@H]3N(C)C2)O[C@@]2(O)[C@H]3CCCN3C(=O)[C@@H](Cc3ccccc3)N2C1=O | inactive |
| CCCC[N+]1(C)[C@@H]2CC(OC(=O)[C@@H](CO)c3ccccc3)C[C@H]1[C@H]1O[C@H]12 (stereo partly specified) | inactive |
| CC[C@]1(O)C(=O)OCc2c1cc1n(c2=O)Cc2cc3ccccc3nc2-1 | active |
| C[C@@]12CC[C@H]3[C@@H](CCC4=CC(=O)CC[C@]43C)[C@H]1CCC2=O | inactive |
| C=CCN1C[C@@H](C)N([C@H](c2ccc(C(=O)N(CC)CC)cc2)c2cccc(OC)c2)C[C@H]1C | inactive |
| C[C@@H]1O[C@@H](O[C@H]2C[C@@H](O)[C@]3(CO)[C@@H]4[C@@H](O)C[C@]5(C)[C@H]([C@@H]6COC(=O)C6)CC[C@@]5(O)[C@H]4CC[C@@]3(O)C2)[C@H](O)[C@H](O)[C@@H]1O | inactive |
| CC(C)C[C@H]1C(=O)N2CCC[C@@H]2[C@]2(O)O[C@](NC(=O)[C@H]3C=C4c5cccc6[nH]cc(c56)C[C@H]4N(C)C3)(C(C)C)C(=O)N12 | active |
